Provenance of the data: patent US6437138B1

Give melting point for every item shown.
Counter-ions that a name gives are not always drawn.

Some solved cases for reference:
compound: C=Cc1ncc(OC[C@@H]2CCCN2)cc1C.Cl
melting point: 168 to 170 °C

compound: C=Cc1cc(OC[C@@H]2CCCN2)cnc1Cl.Cl
melting point: 195 to 197 °C

// batch mode: one melting point value per listed entry
1. CN1CCC[C@@H]1COc1cncc(-c2ccccc2)c1.Cl.Cl
2. Cl.Cl.c1ccc(COc2cncc(OC[C@@H]3CCN3)c2)cc1
3. CN1CC[C@H]1COc1cncc(C=CC=CC(C)(C)C)c1 (as salt: hydrochloride) [Example 166, Dihydrochloride]
4. Cl.Cl.Clc1ccc(-c2cncc(OC[C@@H]3CCCN3)c2)cc1
5. CN1CCC[C@H]1COc1cnc(Cl)c(C=CC=CC(C)(C)C)c1.Cl.Cl
6. C=Cc1cc(OC[C@H]2CCCN2C)cnc1Cl.Cl
7. Clc1ncc(OC[C@H]2CCCN2)cc1-c1ccccc1 (as salt: salt)
8. Cl.Cl.Clc1ncc(OC[C@@H]2CCCN2)cc1Br

*A*
1: 89 to 90 °C; 2: 172 to 174 °C; 3: 143 to 145 °C; 4: 180 to 182 °C; 5: 220 °C; 6: 173 to 175 °C; 7: 178 to 180 °C; 8: 264 to 268 °C

* * *

Give Emax for every item shown.
- testedTarget: neuronal nicotinic cholinergic channels in IMR-32 cells (Homo sapiens, UniProt P30926+P32297)
- testProtocol: 86Rb+ efflux in IMR-32 cells (activation, or inhibition of efflux elicited by (S)-nicotine)
- Type: cell-based
- assayContext: IMR-32; 86Rb+ efflux; percent relative to the response elicited by 100 μM (S)-nicotine; read-out: IMR-32 maximal response
Structures can show the parent of a compound that is named as a salt.
Give bare numbers, in %.

compound: Cl.Cl.Clc1ncc(OC[C@@H]2CCCN2)cc1-c1ccccc1 [Example 84, Dihydrochloride]
Emax (%): 37

compound: CC(=O)NCc1cc(OC[C@@H]2CCN2)cnc1Cl [Example 206, Dihydrochloride]
Emax (%): 11

compound: CN1CCC[C@H]1COc1cncc(-c2cncnc2)c1.Cl.Cl [Example 25, Dihydrochloride]
Emax (%): 4.5

compound: Cl.Cl.Cl.c1cc(CCc2cncc(OC[C@H]3CCCN3)c2)ccn1 [Example 87, Trihydrochloride]
Emax (%): 40

compound: C=Cc1cc(OC[C@@H]2CCN2)cnc1Cl.Cl.Cl [Example 165, Dihydrochloride]
Emax (%): 127

// batch mode: one Emax value per listed entry
1. Cl.Cl.Clc1ncc(OC[C@@H]2CCCN2)cc1C=Cc1ccncc1 [Example 33, Dihydrochloride]
2. c1csc(-c2cncc(OC[C@@H]3CCN3)c2)c1 [Example 154, Dihydrochloride]
3. O=C(NCc1cc(OC[C@@H]2CCN2)cnc1Cl)c1ccccc1 [Example 92, Hydrochloride]
4. C=CCc1cc(OC[C@@H]2CCCN2)cnc1Cl [Example 183, Hydrochloride]

*A*
1. 47
2. 1.5
3. 25
4. 110

// batch mode: one Emax value per listed entry
1. C=Cc1cc(OC[C@@H]2CCCN2)cnc1C=C.Cl [Example 193, Hydrochloride]
2. C(=C\c1cncc(OC[C@H]2CCCN2)c1)/c1ccncc1 [Example 86, Trihydrochloride]
3. CN1CCC[C@@H]1COc1cnc(Cl)c(-c2ccccc2)c1 [Example 69, Dihydrochloride]
4. Clc1ncc(OC[C@@H]2CCN2)cc1-c1ccccc1
5. Clc1ncc(OC[C@H]2CCCN2)cc1C=Cc1ccncc1 [Example 81, Dihydrochloride]
6. C=CCc1cncc(OC[C@@H]2CCN2)c1 [Example 181, Hydrochloride]
7. Cl.Cl.Clc1ncc(OC[C@@H]2CCCN2)cc1-c1cccnc1 [Example 34, Dihydrochloride]
8. C=Cc1cc(OC[C@@H]2CCCN2)cnc1Cl.Cl [Example 191, Hydrochloride]

*A*
1. 9.5
2. 44
3. 6
4. 90
5. 32
6. 82
7. 88
8. 106

*Q* Given the compound Clc1ncc(OC[C@@H]2CCN2)cc1C=Cc1ccncc1 , what is its reported Emax?
*A* 72
